- tgt: Mer (Homo sapiens, UniProt Q12866)
- Sequence (Q12866 21-999): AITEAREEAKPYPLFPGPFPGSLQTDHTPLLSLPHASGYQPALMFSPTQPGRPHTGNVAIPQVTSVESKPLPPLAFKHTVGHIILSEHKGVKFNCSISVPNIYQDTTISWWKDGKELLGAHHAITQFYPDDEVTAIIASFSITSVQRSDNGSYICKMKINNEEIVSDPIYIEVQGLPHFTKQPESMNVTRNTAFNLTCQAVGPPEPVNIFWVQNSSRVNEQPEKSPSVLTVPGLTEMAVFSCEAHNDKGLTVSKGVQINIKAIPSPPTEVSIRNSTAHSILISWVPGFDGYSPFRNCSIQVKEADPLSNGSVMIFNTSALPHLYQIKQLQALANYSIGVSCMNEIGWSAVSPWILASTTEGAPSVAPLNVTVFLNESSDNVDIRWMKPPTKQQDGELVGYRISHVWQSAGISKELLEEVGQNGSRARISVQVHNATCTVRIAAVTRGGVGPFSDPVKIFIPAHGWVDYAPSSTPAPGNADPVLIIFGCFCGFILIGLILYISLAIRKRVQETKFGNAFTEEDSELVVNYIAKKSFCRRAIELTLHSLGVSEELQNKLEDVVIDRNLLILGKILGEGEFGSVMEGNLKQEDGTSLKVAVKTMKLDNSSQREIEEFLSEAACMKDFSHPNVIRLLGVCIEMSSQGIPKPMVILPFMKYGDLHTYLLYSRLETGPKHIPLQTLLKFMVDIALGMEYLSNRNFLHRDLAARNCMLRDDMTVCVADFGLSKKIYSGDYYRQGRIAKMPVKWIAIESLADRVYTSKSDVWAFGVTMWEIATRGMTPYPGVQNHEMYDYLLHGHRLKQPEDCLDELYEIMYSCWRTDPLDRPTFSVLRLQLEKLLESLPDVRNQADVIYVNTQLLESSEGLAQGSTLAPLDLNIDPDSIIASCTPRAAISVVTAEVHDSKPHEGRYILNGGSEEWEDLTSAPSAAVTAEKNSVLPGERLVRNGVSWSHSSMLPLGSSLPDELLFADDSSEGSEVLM
quantity.name: Kd

# molecule, quantity.name, readout.value
data = [
    ("CCOc1cn(-c2cnccc2CCO)nc1C(=O)Nc1ccc(Oc2ccnc3cc(OC)c(OC)cc23)cn1", "Kd", "< 100 nM"),
    ("COc1cc2nccc(Oc3ccc(NC(=O)c4nn(-c5ccc(OC(F)(F)F)cc5Cl)cc4OCC(F)(F)F)nc3)c2cc1OC", "Kd", "< 100 nM"),
    ("CCOc1cnn(C2CCN(C)CC2)c1C(=O)Nc1ccc(Oc2ccnc3cc(OC)c(OC)cc23)cc1F", "Kd", "100 to 1000 nM"),
    ("CCOc1cn(-c2cnccn2)nc1C(=O)Nc1ccc(Oc2ccnc3cc(OC)c(OC)cc23)cn1", "Kd", "< 100 nM"),
    ("CCOc1cn(CC2CCO2)nc1C(=O)Nc1ccc(Oc2ccnc3cc(OC)c(OC)cc23)cn1 (stereo not shown)", "Kd", "< 100 nM"),
    ("CCOc1cnn(CC2CCO2)c1C(=O)Nc1ccc(Oc2ccnc3cc(OC)c(OC)cc23)cn1 (stereo not shown)", "Kd", "100 to 1000 nM"),
    ("COc1cc2nccc(Oc3ccc(NC(=O)c4nn(-c5ccc(F)cc5F)cc4OCC(F)(F)F)nc3)c2cc1OC", "Kd", "< 100 nM"),
]

* * *

pKd: −log10 of the molar value.
This section lists pKd readings for Mer (Homo sapiens).
quantity.name: pKd

# compound, readout.value
measured = [
    ("CCOc1cn(-c2ccc(C)cc2F)nc1C(=O)Nc1ccc(Oc2ccnc3cc(OC)c(OC)cc23)cn1 [Compound 100]", "> 7.00"),
    ("CCOc1cn(-c2cnc(Cl)cn2)nc1C(=O)Nc1ccc(Oc2ccnc3cc(OC)c(OC)cc23)cn1 [Compound 169]", "> 7.00"),
    ("CCOc1cn(C2CCN(C)C2)nc1C(=O)Nc1ccc(Oc2ccnc3cc(OC)c(OC)cc23)cc1F (stereo not shown) [Compound 212]", "6.00 to 7.00"),
    ("CCOc1cn(-c2cnccn2)nc1C(=O)Nc1cc(C)c(Oc2ccnc3cc(OC)c(OC)cc23)cn1 [Compound 163]", "> 7.00"),
    ("CCOc1cn(-c2cnccn2)nc1C(=O)NC1CC(Oc2ccnc3cc(OC)c(OC)cc23)C1 (stereo not shown) [Compound 204]", "6.00 to 7.00"),
    ("CCOc1cn(-c2cccnc2Cl)nc1C(=O)Nc1ccc(Oc2ccnc3cc(OC)c(OC)cc23)cn1 [Compound 19]", "> 7.00"),
    ("CCOc1cn(-c2ccc(F)cc2C)nc1C(=O)Nc1ccc(Oc2ccnc3cc(OC)c(OC)cc23)c(Cl)c1 [Compound 82]", "> 7.00"),
    ("COc1cc2nccc(Oc3ccc(NC(=O)c4nn(-c5cccnc5)cc4OCC4CC4)nc3)c2cc1OC [Compound 255]", "> 7.00"),
    ("CCOc1cnn(-c2ccc(C#N)nc2)c1C(=O)Nc1ccc(Oc2ccnc3cc(OC)c(OC)cc23)cn1 [Compound 53]", "≤ 6.00"),
    ("CCOc1cn(-c2cncnc2C(C)C)nc1C(=O)Nc1ccc(Oc2ccnc3cc(OC)c(OC)cc23)cn1 [Compound 166]", "> 7.00"),
    ("CCOc1cn(-c2cncnc2C)nc1C(=O)Nc1ccc(Oc2ccnc3cc(OC)c(OC)cc23)cn1 [Compound 149]", "> 7.00"),
    ("CCOc1cn(-c2cnc(N)cn2)nc1C(=O)Nc1ccc(Oc2ccnc3cc(OC)c(OC)cc23)cn1 [Compound 136]", "> 7.00"),
    ("CCOc1cn(-c2ccncc2C)nc1C(=O)Nc1ccc(Oc2ccnc3cc(OC)c(OC)cc23)cn1 [Compound 34]", "> 7.00"),
    ("C=C(C)c1ccncc1-n1cc(OCC)c(C(=O)Nc2ccc(Oc3ccnc4cc(OC)c(OC)cc34)cn2)n1 [Compound 202]", "> 7.00"),
    ("CCOc1cn(-c2cnccc2CC(=O)OC)nc1C(=O)Nc1ccc(Oc2ccnc3cc(OC)c(OC)cc23)cn1 [Compound 176]", "> 7.00"),
    ("CCOc1cn(-c2cnc(N)nc2)nc1C(=O)Nc1ccc(Oc2ccnc3cc(OC)c(OC)cc23)cc1F [Compound 153]", "> 7.00"),
    ("COc1cc2nccc(Oc3ccc(NC(=O)c4nn(-c5ccc(F)cc5C5CCCC5)cc4OCC4CC4)nc3)c2cc1OC [Compound 270]", "6.00 to 7.00"),
    ("CCOc1cn(-c2ccc(F)cc2)nc1C(=O)Nc1ccc(Oc2ccnc3cc(OC)c(OC)cc23)cn1 [Compound 89]", "> 7.00"),
    ("COc1cc2nccc(Oc3ccc(NC(=O)c4nn(-c5ccc(F)cc5Cl)cc4OCC4CC4)nc3)c2cc1OC [Compound 263]", "> 7.00"),
]
